# measuredTarget: Nicotinic acetylcholine receptor alpha6/alpha3/beta4 (Rattus norvegicus, UniProt P04757+P12392+P43143)
# Sequence (P04757 whole entry): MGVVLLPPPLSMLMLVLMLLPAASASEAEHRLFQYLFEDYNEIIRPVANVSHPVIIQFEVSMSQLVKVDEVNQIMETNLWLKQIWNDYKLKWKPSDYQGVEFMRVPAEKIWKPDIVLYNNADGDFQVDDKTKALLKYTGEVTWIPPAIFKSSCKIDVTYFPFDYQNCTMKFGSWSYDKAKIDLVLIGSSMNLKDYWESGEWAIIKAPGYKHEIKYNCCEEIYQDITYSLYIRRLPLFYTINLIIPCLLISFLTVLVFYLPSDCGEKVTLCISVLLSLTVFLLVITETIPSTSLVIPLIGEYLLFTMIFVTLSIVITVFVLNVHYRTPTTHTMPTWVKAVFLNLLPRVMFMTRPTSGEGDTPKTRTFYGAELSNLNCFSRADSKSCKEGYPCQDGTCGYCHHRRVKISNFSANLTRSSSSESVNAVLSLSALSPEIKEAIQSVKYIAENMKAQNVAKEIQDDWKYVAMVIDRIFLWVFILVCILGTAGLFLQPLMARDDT
# Sequence (P12392 whole entry): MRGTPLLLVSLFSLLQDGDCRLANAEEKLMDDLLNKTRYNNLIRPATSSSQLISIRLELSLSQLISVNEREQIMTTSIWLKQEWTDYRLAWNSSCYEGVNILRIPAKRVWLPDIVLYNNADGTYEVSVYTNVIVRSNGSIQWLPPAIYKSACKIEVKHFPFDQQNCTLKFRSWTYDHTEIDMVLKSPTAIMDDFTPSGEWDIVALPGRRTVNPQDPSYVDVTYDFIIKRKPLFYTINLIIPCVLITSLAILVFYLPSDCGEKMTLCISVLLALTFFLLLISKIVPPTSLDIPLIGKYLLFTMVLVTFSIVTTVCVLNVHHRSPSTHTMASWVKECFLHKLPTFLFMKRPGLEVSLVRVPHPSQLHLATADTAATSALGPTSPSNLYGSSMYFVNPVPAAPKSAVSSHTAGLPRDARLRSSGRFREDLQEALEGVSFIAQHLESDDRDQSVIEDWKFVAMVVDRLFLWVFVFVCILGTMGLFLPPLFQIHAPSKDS
# Sequence (P43143 whole entry): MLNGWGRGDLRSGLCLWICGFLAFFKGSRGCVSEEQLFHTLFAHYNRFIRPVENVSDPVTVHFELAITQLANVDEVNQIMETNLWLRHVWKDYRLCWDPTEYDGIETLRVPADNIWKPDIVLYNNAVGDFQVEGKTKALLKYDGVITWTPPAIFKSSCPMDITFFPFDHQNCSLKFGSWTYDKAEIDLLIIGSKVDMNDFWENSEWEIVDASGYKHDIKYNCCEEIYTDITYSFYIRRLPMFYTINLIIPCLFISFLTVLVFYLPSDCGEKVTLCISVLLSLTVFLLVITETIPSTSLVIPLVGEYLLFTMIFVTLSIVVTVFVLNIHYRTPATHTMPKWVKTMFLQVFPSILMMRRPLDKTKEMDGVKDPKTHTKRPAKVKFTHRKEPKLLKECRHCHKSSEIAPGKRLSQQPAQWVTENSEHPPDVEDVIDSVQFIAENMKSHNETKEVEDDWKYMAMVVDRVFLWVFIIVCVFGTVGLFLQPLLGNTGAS
# runDescription: Antagonist activity at rat alpha6/alpha3beta4 nACHR expressed in xenopous laevis oocyte assessed as inhibition of ACh induced channel current after 5 mins at -70 mV holding potential by two electrode voltage clamp method
Where a SMILES comes first, the peptide text is derived from it. Bridges are numbered along the chain shown (N, C = ends). [ ]: non-standard residue; d: D form. hMet = CSCCC[C@H](N)C(=O)O
quantityName: IC50 (nM)
# output: bare number, implied unit nM

Exam item: Which value of IC50 has been reported for CC[C@H](C)[C@@H]1NC(=O)[C@@H]2CCCN2C(=O)[C@H](CO)NC(=O)[C@H](CCCSC)NC(=O)[C@H](C)NC(=O)[C@H](CO)NC(=O)[C@@H]2CSSC[C@H](NC(=O)[C@H](C)N)C(=O)N[C@@H](CSSC[C@@H](C(N)=O)NC1=O)C(=O)N[C@@H](CO)C(=O)N[C@@H](Cc1cnc[nH]1)C(=O)N1CCC[C@H]1C(=O)N[C@@H](C(C)C)C(=O)N2 (H-ACCSHPVCSA[hMet]SPIC-NH2; disulfide 2-8, 3-15) in the records?
Marked response: 278

Exam item: Look up IC50: CSCCC[C@@H]1NC(=O)[C@H](C)NC(=O)[C@H](CO)NC(=O)[C@@H]2CSSC[C@H](NC(=O)CN)C(=O)N[C@@H](CSSC[C@@H](C(N)=O)NC(=O)[C@H](CCCNC(=N)N)NC(=O)[C@@H]3CCCN3C(=O)[C@H](CO)NC1=O)C(=O)N[C@@H](CO)C(=O)N[C@@H](Cc1cnc[nH]1)C(=O)N1CCC[C@H]1C(=O)N[C@@H](C(C)C)C(=O)N2 (H-GCCSHPVCSA[hMet]SPRC-NH2; disulfide 2-8, 3-15)
Marked response: 40.8

Exam item: Which IC50 value is on record for CSCCC[C@@H]1NC(=O)[C@H](C)NC(=O)[C@H](CO)NC(=O)[C@@H]2CSSC[C@H](NC(=O)CN)C(=O)N[C@@H](CSSC[C@@H](C(N)=O)NC(=O)[C@H](C)NC(=O)[C@@H]3CCCN3C(=O)[C@H](CO)NC1=O)C(=O)N[C@@H](CO)C(=O)N[C@@H](Cc1cnc[nH]1)C(=O)N1CCC[C@H]1C(=O)N[C@@H](C(C)C)C(=O)N2 (H-GCCSHPVCSA[hMet]SPAC-NH2; disulfide 2-8, 3-15) ?
Marked response: 45.8
